Measured On: CaBbc1
Assay Comment: SPOT peptide array binding signal intensity (averaged, normalized) (arbitrary units (background-subtracted, floor 0; scale differs between SH3 domains)); higher = stronger binding of the SH3 domain to the peptide
Property Label: SPOT peptide array binding signal intensity
Answer with a bare number; do not write a unit.

Task item: Item VQPTAAPATPPRHIS : provide SPOT peptide array binding signal intensity
Reply: 78.6

Task item: Item ALFRLSFFFPLDPAY : provide SPOT peptide array binding signal intensity
Reply: 162

Task item: Item KKEKKPPKIPKKVYT : provide SPOT peptide array binding signal intensity
Reply: 88.5
